The following compounds are shown together with reported pIC50 values.
Test system: HAP1 MTAP-intact cell line
assay-remarks: SDMA in-cell western assay, HAP1 MTAP-intact
Assay type: cell-based
measurement-parameters: Homo sapiens, HAP1, SDMA in-cell western, HAP1 MTAP-intact; read-out: MTAP HAP1 intact IC50
pIC50: −log10 of the molar value.
observed-property: pIC50

compound="CNC(=O)c1ccc([C@H]2CC[C@H](C)CN2C(=O)C(=O)Nc2cnc(OC)c(C(N)=O)c2)s1 (single isomer, unassigned)" recorded_measurement="6.00 to 7.00"
compound="CCc1cc(NC(=O)C(=O)N2C[C@@H](C)CC[C@@H]2c2cnc3c(c2)CCC(=O)N3)cnc1N (racemic)" recorded_measurement="< 6.00"
compound="COc1cc([C@H]2CC[C@H](C)CN2C(=O)C(=O)Nc2cncc(C(N)=O)c2)ccn1 (single isomer, unassigned)" recorded_measurement="< 6.00"
compound="CCc1cc(NC(=O)C(=O)N2C[C@@H](C)CC[C@@H]2c2ccc3c(c2)CCC(=O)N3)cnc1N (single isomer, unassigned)" recorded_measurement="< 6.00"
compound="C[C@H]1CC[C@H](c2ccc(F)c(F)c2)N(C(=O)C(=O)Nc2cncc(C(N)=O)c2)C1 (single isomer, unassigned)" recorded_measurement="< 6.00"
compound="Cc1cncc(NC(=O)C(=O)N2C[C@H](C)CCC2c2cccc(F)c2)c1 (single isomer, unassigned)" recorded_measurement="< 6.00"
compound=Cc1cc(NC(=O)C(=O)N2C[C@@H](C)CC[C@@H]2c2ccc3sc(C4COC4)nc3c2)cnc1N recorded_measurement="> 7.00"
compound="COc1ncc(NC(=O)C(=O)N2C[C@H](C)CC[C@H]2c2cnc3[nH]ncc3c2)cc1C(N)=O (single isomer, unassigned)" recorded_measurement="< 6.00"
compound="C[C@@H]1CC[C@@H](c2ccn(-c3cc[nH]n3)n2)N(C(=O)C(=O)Nc2cncc(C(N)=O)c2)C1 (single isomer, unassigned)" recorded_measurement="< 6.00"
compound="Cc1cc(NC(=O)C(=O)N2C[C@H](C)CC[C@H]2c2cccc3c2CC(=O)N3)cnc1N (racemic)" recorded_measurement="< 6.00"
compound="C[C@H]1CC[C@H](c2ccn(-c3cc[nH]n3)n2)N(C(=O)C(=O)Nc2cncc(C(N)=O)c2)C1 (single isomer, unassigned)" recorded_measurement="< 6.00"
compound="CO[C@@H]1C[C@@H](c2ccc3scnc3c2)N(C(=O)C(=O)Nc2cncc(C(N)=O)c2)C[C@@H]1C (single isomer, unassigned)" recorded_measurement="6.00 to 7.00"
